Target: T1, cynomolgus monkey Trop-2-hFc (cynomolgus monkey, UniProt A0A2K5UE71 27-274)
T1 construct: also called cynoTrop-2; not shown: human Fc
T1 sequence: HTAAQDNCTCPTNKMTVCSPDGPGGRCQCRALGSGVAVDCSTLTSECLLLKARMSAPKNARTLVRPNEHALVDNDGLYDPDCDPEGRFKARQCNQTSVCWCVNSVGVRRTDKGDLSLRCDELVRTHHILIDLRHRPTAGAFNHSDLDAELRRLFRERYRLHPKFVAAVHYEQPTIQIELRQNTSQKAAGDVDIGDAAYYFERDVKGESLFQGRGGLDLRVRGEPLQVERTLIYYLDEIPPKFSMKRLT
Test name: SPR (Biacore T200), cynomolgus Trop-2-hFc captured by anti-human Fc, Fab as analyte
Observation type: kon

Use these answered entries as a reference point.
Binder	kon
h7E6_SVG Fab (Fab, V domains shown, also called DG (h7E6_SVG)) VH: QVQLQESGPGLVKPSETLSLTCTVSGGSISSYGVHWIRQPPGKGLEWIGVIWTSGVTDYNSALMGRVTISVDTSKNQFSLKLSSVTAADTAVYYCARDGDYDRYTMDYWGQGTLVTVSS VL: DIVMTQSPDSLAVSLGERATINCRASKSVSTSGYSYMHWYQQKPGQPPKLLIYLASNLESGVPDRFSGSGSGTDFTLTISSLQAEDVAVYYCQHSRELPYTFGQGTKLEIK	265000 M⁻¹ s⁻¹
h7E6_SVGL recombinant Fab fragment (Fab, V domains shown, Recombinant Fab) VH: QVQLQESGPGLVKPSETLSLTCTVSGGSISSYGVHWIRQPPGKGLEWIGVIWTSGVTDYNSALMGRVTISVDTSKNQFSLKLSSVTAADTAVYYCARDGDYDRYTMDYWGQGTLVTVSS VL: DIVMTQSPDSLAVSLGERATINCRASKSVSTSLYSYMHWYQQKPGQPPKLLIYLASNLESGVPDRFSGSGSGTDFTLTISSLQAEDVAVYYCQHSRELPYTFGQGTKLEIK	130000 M⁻¹ s⁻¹
h7E6_L recombinant Fab fragment (Fab, V domains shown, Recombinant Fab) VH: QVQLQESGPGLVKPSETLSLTCTVSGGSISSYGVHWIRQPPGKGLEWIGVIWTGGSTDYNSALMSRVTISVDTSKNQFSLKLSSVTAADTAVYYCARDGDYDRYTMDYWGQGTLVTVSS VL: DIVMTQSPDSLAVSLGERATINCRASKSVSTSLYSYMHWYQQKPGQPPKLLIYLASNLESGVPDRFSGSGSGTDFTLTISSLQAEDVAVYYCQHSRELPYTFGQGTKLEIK	126000 M⁻¹ s⁻¹

Entry h7E6-WT recombinant Fab fragment (Fab, V domains shown, Recombinant Fab) VH: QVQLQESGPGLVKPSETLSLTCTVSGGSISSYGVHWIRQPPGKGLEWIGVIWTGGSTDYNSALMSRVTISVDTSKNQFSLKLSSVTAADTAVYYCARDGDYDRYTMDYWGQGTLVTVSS VL: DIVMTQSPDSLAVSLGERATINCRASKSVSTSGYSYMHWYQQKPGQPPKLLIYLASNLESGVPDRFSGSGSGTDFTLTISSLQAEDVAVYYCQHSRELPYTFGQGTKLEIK ; kon = 144000 M⁻¹ s⁻¹
